Hi there, I'd appreciate the recorded abundance fitness for every entry that follows.
B1: Chromodomain-helicase-DNA-binding protein 7, residues 2564 to 2605; numbered along this chain, Q9P2D1 (parent)
chain: DPDTRIPVINLEDGTRLVGEDAPKNKDLVEWLKLHPTYTVDM

# Variants of: B1
# ASSAY_REMARKS: abundance fitness (aPCA) (normalised: wild type 0, dead -1); higher = more abundant; growth selection in yeast, the domain comes from the species named
# CONDITION_DETAILS: Homo sapiens
Give bare numbers.

[[record]]
mutation_key = "N25R"
experimental_value = -0.1

[[record]]
mutation_key = "L11E"
experimental_value = 0.058


Record abundance fitness per entry; entries follow.
1. N10S
2. A22S
3. R5N
4. W31M
5. V40Q
6. D21E
7. E20C
8. D41A

Data returned:
[-0.025, -0.358, -0.349, -0.196, -0.108, -0.207, -0.264, -0.396]

Record abundance fitness per entry; entries follow.
1. R5V
2. K24G
3. L17F
4. D21Q
5. L11S
6. V40N
7. Y38N

Data returned:
-0.372
-0.552
-0.191
-0.018
0.193
-0.341
-0.459
